- target-or-system: human recombinant AT2 receptor (Homo sapiens, UniProt P50052)
- Sequence (P50052 whole entry): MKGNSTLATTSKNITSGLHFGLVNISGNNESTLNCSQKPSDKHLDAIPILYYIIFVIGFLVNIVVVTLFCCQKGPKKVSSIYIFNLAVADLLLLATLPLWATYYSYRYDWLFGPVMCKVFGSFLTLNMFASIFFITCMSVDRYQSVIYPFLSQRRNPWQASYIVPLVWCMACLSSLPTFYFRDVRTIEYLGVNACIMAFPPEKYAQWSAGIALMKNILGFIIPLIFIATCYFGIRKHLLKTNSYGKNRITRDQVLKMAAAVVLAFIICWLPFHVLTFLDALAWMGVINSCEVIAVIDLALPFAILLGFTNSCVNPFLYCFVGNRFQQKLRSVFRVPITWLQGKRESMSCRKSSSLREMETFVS
- experiment-notes: Affinity for AT2 receptor (receptor binding assay)
- condition-set: membrane fraction from HeLa cells expressing human recombinant AT2 receptor; 125I-[Sar1, Ile8]-Ang II 0.1 nmol/L
parameter-measured: Ki (µM)

Examples from the recorded data:
CC(C)N(C(=O)C(CC1CC1)C(=O)NS(=O)(=O)CCc1ccccc1)c1ccc(F)cc1 (stereo not shown)    0.01
CCN(CC)C(=O)[C@H](Cc1ccc(NC(=O)c2ccccc2)cc1)C(=O)NS(=O)(=O)c1ccc2ccccc2c1    0.0023

P. CCN(CC)C(=O)C(CCCc1ccc(N)cc1)C(=O)NS(=O)(=O)c1ccc2ccccc2c1 (stereo not shown)
Q. CCN(C(=O)C(CC(=O)N1CCc2ccccc2C1)C(=O)NS(=O)(=O)/C=C/c1ccccc1)c1ccccc1 (stereo not shown)
# input Hi team, can someone confirm which has the larger Ki: P or Q ? Thanks. State your choice using its label.
# output P
(P: 0.034 µM, Q: 0.011 µM)

====

- target-or-system: human recombinant AT2 receptor (Homo sapiens, UniProt P50052)
- experiment-notes: Affinity for AT2 receptor (receptor binding assay)
- condition-set: membrane fraction from HeLa cells expressing human recombinant AT2 receptor; 125I-[Sar1, Ile8]-Ang II 0.1 nmol/L
pKi: −log10 of the molar value.
parameter-measured: pKi

Answered examples (2):
CCN(CC)C(=O)[C@H](Cc1ccc(NC(=O)c2ccccn2)cc1)C(=O)NS(=O)(=O)c1ccc2ccccc2c1    7.80
CCN(CC)C(=O)[C@H](Cc1ccc(NC(=O)c2cc(F)ccc2N)cc1)C(=O)NS(=O)(=O)c1ccc2ccccc2c1    9.05

1. CCN(CC)C(=O)[C@H](Cc1ccc(NC(=O)c2cc(F)c(F)cc2N)cc1)C(=O)NS(=O)(=O)c1ccc2ccccc2c1
2. CC(C)CC(C(=O)NS(=O)(=O)CCCOc1ccccc1)C(=O)N(c1ccc(F)cc1)C(C)C (stereo not shown)
# input Sorting by pKi in descending order, would 1 or 2 appear first? Refer to your chosen entry by its label in the reply.
# output 1
